assay: Selectivity index, ratio of EC50 for cytotoxicity against […] cells to EC50 for antiplasmodial activity against Plasmodium falciparum FCR-3 ATCC 30932 infected in human erythrocytes; assay type: toxicity, cell-based; settings: mouse, read-out: Ratio EC50
I'd appreciate it if you could supply selectivity ratio values for the items below.

Example entries and their recorded answers appear below.
[[record]]
smiles = "CCn1c(=O)/c(=C2\\Sc3ccccc3N2C)s/c1=C\\c1cccc[n+]1CCO"
property_name = "selectivity ratio"
assay_result = "> 100"

[[record]]
smiles = "C=CCn1c(=O)/c(=C2\\Sc3ccccc3N2C)s/c1=C\\c1cc[n+](C)cc1"
property_name = "selectivity ratio"
assay_result = "> 100"

[[record]]
smiles = "CCn1c(=O)/c(=C2\\Sc3ccccc3N2C)s/c1=C\\c1cc[n+](C)c2ccccc12"
property_name = "selectivity ratio"
assay_result = "> 100"

[[record]]
smiles = "CN1/C(=c2\\s/c(=C\\c3cccc[n+]3C)n(Cc3ccccc3)c2=O)Sc2ccccc21"
property_name = "selectivity ratio"
assay_result = "> 100"

[[record]]
smiles = "CCn1c(=O)/c(=C2\\Sc3ccccc3N2C)s/c1=C\\c1cccc[n+]1C"
property_name = "selectivity ratio"
assay_result = "> 100"


State the recorded selectivity ratio for every item in the following list.
1. CCn1c(=O)/c(=C2\Sc3ccccc3N2C)s/c1=C\c1cccc(-c2ccccc2)[n+]1C
2. CCn1c(=O)/c(=C2\Sc3ccccc3N2C)s/c1=C/c1cc[n+](CCCCC(=O)O)cc1
3. CN1/C(=c2\s/c(=C\c3cc[n+](C)cc3)n(Cc3ccccc3)c2=O)Sc2ccccc21
4. CCn1c(=O)/c(=C2\Sc3ccccc3N2C)s/c1=C\c1ccc2ccccc2[n+]1C

1. > 100
2. > 100
3. > 100
4. > 100
